- study system: Cannabinoid receptor 1 (Homo sapiens, UniProt P21554)
- Sequence (P21554 whole entry): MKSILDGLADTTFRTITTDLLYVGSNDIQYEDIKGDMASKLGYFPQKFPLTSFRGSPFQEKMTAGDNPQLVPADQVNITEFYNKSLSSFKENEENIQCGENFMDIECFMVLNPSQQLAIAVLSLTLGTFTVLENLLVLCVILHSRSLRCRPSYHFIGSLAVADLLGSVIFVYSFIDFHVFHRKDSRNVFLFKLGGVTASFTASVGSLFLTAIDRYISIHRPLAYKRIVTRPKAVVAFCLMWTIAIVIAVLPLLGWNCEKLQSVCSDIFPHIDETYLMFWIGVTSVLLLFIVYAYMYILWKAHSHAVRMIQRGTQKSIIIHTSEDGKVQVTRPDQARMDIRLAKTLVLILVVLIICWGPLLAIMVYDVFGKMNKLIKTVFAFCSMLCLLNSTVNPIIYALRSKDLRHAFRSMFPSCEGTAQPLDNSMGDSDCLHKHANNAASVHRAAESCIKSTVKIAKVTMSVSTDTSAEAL
- experimental details: Displacement of [3H]SR141716A from membrane bound human CB1 receptor at 100 uM after 1 hr by beta scintillation counting method relative to control
inhibition values, listed per item
measured endpoint: inhibition (%)

O=C(c1cccc2ccccc12)c1ccc(OCCCO)c2ccccc12 : 55.6
COC(=O)CCCCOc1ccc(C(=O)c2cccc3ccccc23)c2ccccc12 : 36.5
O=C(O)CCCOc1ccc(C(=O)c2cccc3ccccc23)c2ccccc12 : 16
COC(=O)CCCOc1ccc(C(=O)c2cccc3ccccc23)c2ccccc12 : 68.8
O=C(c1cccc2ccccc12)c1ccc(OCCCCO)c2ccccc12 : 72
O=C(O)CCCCOc1ccc(C(=O)c2cccc3ccccc23)c2ccccc12 : 20.5

====

Ratio IC50 values, listed per item
- Species on record: Homo sapiens
- experimental details: Selectivity ratio of IC50 for displacement of [3H]SR141716A from membrane bound human CB1 receptor to IC50 for displacement of [3H]CP55940 from membrane bound human CB2 receptor
measured endpoint: Ratio IC50

O=C(c1cccc2ccccc12)c1ccc(OCCCO)c2ccccc12 : 6.81
O=C(c1cccc2ccccc12)c1ccc(OCCCCO)c2ccccc12 : 3.55
COC(=O)CCCOc1ccc(C(=O)c2cccc3ccccc23)c2ccccc12 : 8.36

====

- study system: Cannabinoid receptor 1 (Homo sapiens)
- experimental details: Displacement of [3H]SR141716A from membrane bound human CB1 receptor at 10 uM after 1 hr by beta scintillation counting method relative to control
measured endpoint: inhibition (%)

O=C(c1cccc2ccccc12)c1ccc(OCCCCCO)c2ccccc12 : 35.8
O=C(c1cccc2ccccc12)c1ccc(OCCCCCCO)c2ccccc12 : 42.6
O=C(c1cccc2ccccc12)c1ccc(OCCCO)c2ccccc12 : 21.3
COC(=O)CCCCOc1ccc(C(=O)c2cccc3ccccc23)c2ccccc12 : 4.44
O=C(O)CCCCOc1ccc(C(=O)c2cccc3ccccc23)c2ccccc12 : 13
COC(=O)CCCOc1ccc(C(=O)c2cccc3ccccc23)c2ccccc12 : 43.1
CCCCCOc1ccc(C(=O)c2cccc3ccccc23)c2ccccc12 : 64.2
O=C(c1cccc2ccccc12)c1ccc(OCCCCO)c2ccccc12 : 31.2

====

pIC50 values, listed per item
- study system: Cannabinoid receptor 2 (Homo sapiens)
pIC50: −log10 of the molar value.
measured endpoint: pIC50

O=C(c1cccc2ccccc12)c1ccc(OCCCCCO)c2ccccc12 : 5.97
CCCCCOc1ccc(C(=O)c2cccc3ccccc23)c2ccccc12 : 5.28
O=C(O)CCCCOc1ccc(C(=O)c2cccc3ccccc23)c2ccccc12 : 4.90
COC(=O)CCCCOc1ccc(C(=O)c2cccc3ccccc23)c2ccccc12 : 4.32
O=C(c1cccc2ccccc12)c1ccc(OCCCCO)c2ccccc12 : 5.30
O=C(c1cccc2ccccc12)c1ccc(OCCCO)c2ccccc12 : 4.83
COC(=O)CCCOc1ccc(C(=O)c2cccc3ccccc23)c2ccccc12 : 5.77

====

- Species: Homo sapiens
- experimental details: Selectivity ratio of compound effect for displacement of [3H]CP55940 from membrane bound human CB2 receptor at 10 uM to compound effect for displacement of [3H]SR141716A from membrane bound human CB1 receptor at 10 uM
measured endpoint: Selectivity ratio

O=C(c1cccc2ccccc12)c1ccc(OCCCO)c2ccccc12 : 1.76
COC(=O)CCCCOc1ccc(C(=O)c2cccc3ccccc23)c2ccccc12 : 2.69
O=C(O)CCCCOc1ccc(C(=O)c2cccc3ccccc23)c2ccccc12 : 2.81
O=C(c1cccc2ccccc12)c1ccc(OCCCCCO)c2ccccc12 : 2.1
O=C(c1cccc2ccccc12)c1ccc(OCCCCO)c2ccccc12 : 2.93
COC(=O)CCCOc1ccc(C(=O)c2cccc3ccccc23)c2ccccc12 : 2.25
O=C(c1cccc2ccccc12)c1ccc(OCCCCCCO)c2ccccc12 : 1.1

====

- study system: Cannabinoid receptor 2 (Homo sapiens, UniProt P34972)
- Sequence (P34972 whole entry): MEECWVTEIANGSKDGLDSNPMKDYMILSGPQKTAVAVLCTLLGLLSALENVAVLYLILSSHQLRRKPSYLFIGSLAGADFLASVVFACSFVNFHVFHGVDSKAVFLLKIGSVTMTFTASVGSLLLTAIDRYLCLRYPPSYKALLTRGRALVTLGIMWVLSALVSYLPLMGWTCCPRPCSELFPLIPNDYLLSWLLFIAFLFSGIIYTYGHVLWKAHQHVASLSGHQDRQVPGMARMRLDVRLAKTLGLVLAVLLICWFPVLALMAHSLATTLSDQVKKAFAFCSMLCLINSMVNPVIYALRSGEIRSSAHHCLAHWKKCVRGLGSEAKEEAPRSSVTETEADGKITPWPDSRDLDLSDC
- experimental details: Displacement of [3H]CP55940 from membrane bound human CB2 receptor at 10 uM after 1 hr by beta scintillation counting method relative to control
Is inhibition at least 80%? Then TRUE. If not, FALSE.

CCCCCOc1ccc(C(=O)c2cccc3ccccc23)c2ccccc12 : FALSE
O=C(c1cccc2ccccc12)c1ccc(OCCCCO)c2ccccc12 : TRUE
O=C(c1cccc2ccccc12)c1ccc(OCCCO)c2ccccc12 : FALSE
COC(=O)CCCOc1ccc(C(=O)c2cccc3ccccc23)c2ccccc12 : TRUE
O=C(O)CCCCOc1ccc(C(=O)c2cccc3ccccc23)c2ccccc12 : FALSE
O=C(c1cccc2ccccc12)c1ccc(OCCCCCO)c2ccccc12 : FALSE
COC(=O)CCCCOc1ccc(C(=O)c2cccc3ccccc23)c2ccccc12 : FALSE
O=C(c1cccc2ccccc12)c1ccc(OCCCCCCO)c2ccccc12 : FALSE

====

- study system: Cannabinoid receptor 2 (Homo sapiens)
- experimental details: Displacement of [3H]CP55940 from membrane bound human CB2 receptor at 100 uM after 1 hr by beta scintillation counting method relative to control
measured endpoint: inhibition (%)

O=C(c1cccc2ccccc12)c1ccc(OCCCCO)c2ccccc12 : 89.9
O=C(O)CCCOc1ccc(C(=O)c2cccc3ccccc23)c2ccccc12 : 5.36
COC(=O)CCCCOc1ccc(C(=O)c2cccc3ccccc23)c2ccccc12 : 85.6
COC(=O)CCCOc1ccc(C(=O)c2cccc3ccccc23)c2ccccc12 : 101
O=C(c1cccc2ccccc12)c1ccc(OCCCO)c2ccccc12 : 78.5
O=C(O)CCCCOc1ccc(C(=O)c2cccc3ccccc23)c2ccccc12 : 52.1

====

- Species: Homo sapiens
- experimental details: Selectivity ratio of IC50 for displacement of [3H]SR141716A from membrane bound human CB1 receptor to IC50 for displacement of [3H]CP55940 from membrane bound human CB2 receptor
Ratio IC50 values, listed per item
measured endpoint: Ratio IC50

COC(=O)CCCCOc1ccc(C(=O)c2cccc3ccccc23)c2ccccc12 : > 2.1
O=C(c1cccc2ccccc12)c1ccc(OCCCCCO)c2ccccc12 : > 9.26
O=C(O)CCCCOc1ccc(C(=O)c2cccc3ccccc23)c2ccccc12 : > 7.92
